# Measurement notes: Human HepG2 cell viability assay in 384 well format
# Type: toxicity, cell-based
# Design: dose 125 nL, time 70.5 hour; concentration not given beside the values
# Condition: HepG2 cells, read-out: Inhibition
Attribute measured: cytotoxicity at 70.5 h (%)
Write the value in % as a bare number.

q: cytotoxicity at 70.5 h lookup needed for N#Cc1ccc(N2CCC3(CC2)CC(Oc2cccnc2)CO3)cc1 (stereo unspecified) , thanks.
a: 9.42

q: cytotoxicity at 70.5 h lookup needed for `COc1ccc(-n2nc(C(C)C)nc2Cn2cncn2)cc1` , thanks.
a: -8.35

q: cytotoxicity at 70.5 h lookup needed for O=C(Cn1c(=O)oc2ccccc21)NCC1(O)CCc2ccccc2C1 (stereo unspecified) , thanks.
a: -2.64

q: cytotoxicity at 70.5 h lookup needed for `Cn1cnc2c1CCN(CCOc1ccc(C#N)cc1)C2` , thanks.
a: 1.67

q: cytotoxicity at 70.5 h lookup needed for CC1COc2ccccc2N1C(=O)c1ccnc(-n2cncn2)c1 (stereo unspecified) , thanks.
a: 9.86

q: cytotoxicity at 70.5 h lookup needed for `Cc1ccccc1CSc1ncccc1C(=O)N(C)C` , thanks.
a: -2.93

* * *

# Measurement notes: Human HepG2 cell viability assay in 384 well format
# Type: toxicity, cell-based
# Parameters: dose 125 nL, time 70.5 hour; concentration not given beside the values
# Condition: HepG2 cells, read-out: Inhibition
Attribute measured: cytotoxicity at 70.5 h (%)
Write the value in % as a bare number.

q: cytotoxicity at 70.5 h lookup needed for `CN1CCC2(C=C(C(=O)N(C)C)c3ccccc32)CC1` , thanks.
a: 2.91

q: cytotoxicity at 70.5 h lookup needed for `CCn1cnnc1CNC(=O)N(C)Cc1c(F)cccc1Cl` , thanks.
a: -8.68

q: cytotoxicity at 70.5 h lookup needed for Cc1cn2c(n1)CCC(NC(=O)COCCOc1ccccc1)C2 (configuration not stated) , thanks.
a: -8.88

q: cytotoxicity at 70.5 h lookup needed for `O=C(COc1ccc(-n2cccn2)nn1)NC1CCCCC1` , thanks.
a: 0.192

q: cytotoxicity at 70.5 h lookup needed for CC(C)SCc1cccc(NC(=O)NC(C)c2nc[nH]n2)c1 (configuration not stated) , thanks.
a: -7.97

q: cytotoxicity at 70.5 h lookup needed for O=C1CC(c2ccccc2)C2(CCN(Cc3ccccn3)CC2)N1 (configuration not stated) , thanks.
a: -7.79

q: cytotoxicity at 70.5 h lookup needed for `NC(=O)N1CC[C@H]2CO[C@H](CNC(=O)c3ccnnc3)[C@H]2C1` , thanks.
a: -0.828

q: cytotoxicity at 70.5 h lookup needed for `c1ccc(-c2cc(CC3(NCc4ncc[nH]4)COC3)no2)cc1` , thanks.
a: -4.27

q: cytotoxicity at 70.5 h lookup needed for `COc1nc(C)ccc1CNC(=O)NC(C)(C)c1ncc(C)s1` , thanks.
a: -5.61

q: cytotoxicity at 70.5 h lookup needed for `COCCC(=O)Nc1nc2c(OC)cc(F)cc2s1` , thanks.
a: -4.65

q: cytotoxicity at 70.5 h lookup needed for `CCCN(Cc1ccccc1)Cn1nc(C)c2c(C)onc2c1=O` , thanks.
a: 0.0673

q: cytotoxicity at 70.5 h lookup needed for `COCc1cncc2c1CCN(C(=O)c1cscn1)C2` , thanks.
a: 20.4

q: cytotoxicity at 70.5 h lookup needed for Cc1cc(C)nc(N2CCCC(C(=O)Nc3n[nH]c(C(C)C)n3)C2)n1 (configuration not stated) , thanks.
a: -7.23

q: cytotoxicity at 70.5 h lookup needed for `CC(C)Oc1ccc(CN)c(C(F)(F)F)c1` , thanks.
a: -7.67

q: cytotoxicity at 70.5 h lookup needed for `CN(C)c1cc(N(C)Cc2cc(C(C)(C)C)n[nH]2)ncn1` , thanks.
a: -2.08

q: cytotoxicity at 70.5 h lookup needed for `COc1ccnc(N2CCN(C(=O)c3cnn(C)c3C3CC3)CC2)n1` , thanks.
a: -6.28

q: cytotoxicity at 70.5 h lookup needed for `CO[C@H]1CCN(S(=O)(=O)c2cccs2)[C@H]1Cc1ccncc1` , thanks.
a: -6.14

q: cytotoxicity at 70.5 h lookup needed for `Cc1ccc(F)cc1S(=O)(=O)NCc1[nH]ncc1Br` , thanks.
a: -0.985

q: cytotoxicity at 70.5 h lookup needed for `CCC[C@@H]1CN(C(=O)c2cc3ccccc3s2)C[C@H]1NS(C)(=O)=O` , thanks.
a: -2.51

q: cytotoxicity at 70.5 h lookup needed for O=C(CC1CCCO1)Nc1ccc2c(ccn2CCN2CCOCC2)c1 (configuration not stated) , thanks.
a: -8.05

q: cytotoxicity at 70.5 h lookup needed for Cc1c(C(=O)N2CCCC(n3nnc4cc(F)ccc43)C2)cnn1C (configuration not stated) , thanks.
a: -14.1

q: cytotoxicity at 70.5 h lookup needed for `CCN(Cc1ccco1)C(=O)c1cc(OC)c2c(c1)OCCO2` , thanks.
a: 5.2

q: cytotoxicity at 70.5 h lookup needed for Cc1cncc(C2CCCN(C(=O)c3cccn3C)C2)n1 (configuration not stated) , thanks.
a: -5.17

q: cytotoxicity at 70.5 h lookup needed for `CC(C)c1nnc2n1CCN(C(=O)c1cccc(S(C)(=O)=O)c1)C2` , thanks.
a: 17

q: cytotoxicity at 70.5 h lookup needed for `Cc1nc(CN2CCN(C(=O)c3cc(C4CC4)on3)CC2)cs1` , thanks.
a: -14.7

q: cytotoxicity at 70.5 h lookup needed for `CC(C)N1CCCc2sc(C(=O)NC3CC3)nc21` , thanks.
a: 8.47

q: cytotoxicity at 70.5 h lookup needed for `CC(C)N(C)C(=O)c1coc(CN2CCN(c3ccccc3F)CC2)n1` , thanks.
a: -3.77

q: cytotoxicity at 70.5 h lookup needed for Cn1ncc2c1C(COCC1CC1)CN(Cc1ccco1)C2 (configuration not stated) , thanks.
a: 4.98

q: cytotoxicity at 70.5 h lookup needed for `COc1cc2c(cc1OC)CN(Cc1ncccc1C(=O)O)CC2` , thanks.
a: -13.5

q: cytotoxicity at 70.5 h lookup needed for CN(C)C(=O)C1CCC2(CCN(C(=O)Nc3ccc(F)cc3)CC2)O1 (configuration not stated) , thanks.
a: -12.4

q: cytotoxicity at 70.5 h lookup needed for CC(C)C1CN(C(=O)Nc2cnn(CC(F)F)c2)CCO1 (configuration not stated) , thanks.
a: -4.6

q: cytotoxicity at 70.5 h lookup needed for `CCn1nc(C)c(C(=O)N2C[C@@H](CN(C)C)[C@@H](CO)C2)c1C` , thanks.
a: 0.473

q: cytotoxicity at 70.5 h lookup needed for O=C(Nc1nccs1)N1CCCC(N2CCNC2=O)C1 (configuration not stated) , thanks.
a: 1.93

q: cytotoxicity at 70.5 h lookup needed for `COc1ccc(C[C@H]2CN(c3nnc(C)s3)CC[C@H]2OC)cc1` , thanks.
a: -10.2

q: cytotoxicity at 70.5 h lookup needed for c1ccc(N2CCC3(CCCN(c4ncccn4)C3)C2)nc1 (configuration not stated) , thanks.
a: 2.93

q: cytotoxicity at 70.5 h lookup needed for CC1c2ncc(COCC3CCOCC3)n2CCN1C(=O)c1ccoc1 (configuration not stated) , thanks.
a: -2.87

q: cytotoxicity at 70.5 h lookup needed for `O=C(c1nn[nH]c1Nc1cccc(Cl)c1)N1CCSCC1` , thanks.
a: 26.2

q: cytotoxicity at 70.5 h lookup needed for CS(=O)(=O)NC1CCN(C(=O)NCC2CCCO2)CC1 (configuration not stated) , thanks.
a: -10.3

q: cytotoxicity at 70.5 h lookup needed for CN(C)c1cc2c(nn1)CCN(C(=O)C1CCCc3ccccc31)C2 (configuration not stated) , thanks.
a: -8.02

q: cytotoxicity at 70.5 h lookup needed for `COc1ccccc1OCCn1c(C)c(C)oc1=O` , thanks.
a: 23.3

q: cytotoxicity at 70.5 h lookup needed for `Cc1noc(C)c1CN1C[C@@H]2CN(C(=O)c3cnccn3)C[C@@H]2C1` , thanks.
a: 0.0874

q: cytotoxicity at 70.5 h lookup needed for `CN(C)C[C@H]1OC[C@@H]2CCN(S(=O)(=O)c3ccc(F)cc3)C[C@@H]21` , thanks.
a: -7.32

q: cytotoxicity at 70.5 h lookup needed for `NC(=O)c1ccc(NC(=O)c2ccncc2Cl)cn1` , thanks.
a: -4.51

q: cytotoxicity at 70.5 h lookup needed for `CN(C)CCO[C@@H]1CC[C@H]2[C@H]1OCCN2C(=O)c1ccc(F)cc1` , thanks.
a: -1.79

q: cytotoxicity at 70.5 h lookup needed for `COc1ncccc1C(=O)N1CC[C@]2(C[C@@H](Oc3cccnc3)CO2)C1` , thanks.
a: 25.3

q: cytotoxicity at 70.5 h lookup needed for Cc1cnc(NC(=O)C(C)n2ccc(C(F)(F)F)n2)s1 (configuration not stated) , thanks.
a: -5.09

q: cytotoxicity at 70.5 h lookup needed for `c1cc(CNCc2ccnc(N3CCCC3)c2)c2c(c1)OCCCO2` , thanks.
a: -10
